Values were extracted from PubChem BioAssay AID1159580.

# EXPERIMENT_DESCRIPTION: chemical genetic growth profiling, strain panel (AID 1159580);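 note: tested at 20 µM; growth read once vehicle control cultures reached saturation at 30 °C; 1 = growth at the plate median or of vehicle wells; lower values mean less growth of the strain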
# PROTOCOL_CONDITIONS: S. cerevisiae deletion strains, growth OD, locus YKL068W, hits give low values
Screen size: about 5,500 compounds; about 2,000 (36%) were called active. Inconclusive results (about 18%) are left out. This is one part of the list. Where a SMILES comes first, the peptide text is derived from it.
REPORTED_ENDPOINT: normalized growth
In your answer, state the number alone without any accompanying words.

Kindly note the recorded normalized growth for COc1ccc2c(=O)c(OC)c(-c3ccccc3)oc2c1 , which is 0.975

Kindly note the recorded normalized growth for COc1cc2c(cc1OC)C1(O)C(=O)c3ccc(O)c(C(=O)O)c3OC1CO2 (stereo not drawn) , which is 0.983

Kindly note the recorded normalized growth for NC1(C(=O)O)CCC1 , which is 0.996

Kindly note the recorded normalized growth for CC(=O)O[C@H]1C[C@@H](OC(C)=O)C(C)(C)C2C[C@@H](O)[C@]3(C)C(CC[C@@]4(C)[C@H](c5ccoc5)OC(=O)[C@H]5O[C@]543)[C@]21C (stereo partly drawn) , which is 0.969

Kindly note the recorded normalized growth for COc1ccc2c(c1)OCC(Cc1ccc(OC)c(O)c1)C2=O (stereo not drawn) , which is 0.97

Kindly note the recorded normalized growth for NCCCNCCSP(=O)(O)O , which is 0.982

Kindly note the recorded normalized growth for CN(C)C(=O)Oc1ccc[n+](C)c1 , which is 1.02

Kindly note the recorded normalized growth for NC(C(=O)O)C(O)C(=O)O (stereo not drawn) , which is 1.01

Kindly note the recorded normalized growth for CC(=O)N[C@@H](CC(=O)O)C(=O)N[C@@H](CCC(=O)O)C(=O)O (Ac-Asp-Glu-OH) , which is 0.997

Kindly note the recorded normalized growth for NC(=O)NC1NC(=O)NC1=O (stereo not drawn) , which is 0.987

Kindly note the recorded normalized growth for COc1ccc2c(c1)OCC(Cc1ccc(OC)c(OC(C)=O)c1)C2=O (stereo not drawn) , which is 0.984

Kindly note the recorded normalized growth for O=C(O)COc1ccc(Cl)cc1Cl , which is 1.01

Kindly note the recorded normalized growth for O=c1cccc2n1CC1CC2CN2CCCC[C@@H]12 (stereo partly drawn) , which is 0.983

Kindly note the recorded normalized growth for CC(=O)O[C@]1(C)CC[C@@]23CC1C(C)(C)[C@@H]2CC[C@H]3C , which is 0.998

Kindly note the recorded normalized growth for CN(C)CCC(c1ccccc1)c1ccccn1 (stereo not drawn) , which is 1

Kindly note the recorded normalized growth for CC(=O)N[C@@H](CCC(=O)O)C(=O)O , which is 0.995

Kindly note the recorded normalized growth for N[C@@H](C(=O)O)[C@@H](O)[C@H](O)[C@H](O)CO , which is 1.01

Kindly note the recorded normalized growth for c1ccc2c(CC3=NCCN3)cccc2c1 , which is 1.01

Kindly note the recorded normalized growth for COP(=S)(OC)Oc1ccc([N+](=O)[O-])cc1 , which is 0.987

Kindly note the recorded normalized growth for O=C(O)CCC1NCC2CC1CN1CCCCC21 (stereo not drawn) , which is 1

Kindly note the recorded normalized growth for CC(=O)OCC(=O)[C@@]1(O)CCC2C3CCC4=CC(=O)C=CC4(C)C3[C@@H](O)C[C@@]21C (stereo partly drawn) , which is 1.01

Kindly note the recorded normalized growth for CC(C)(S)[C@@H](N)C(=O)O , which is 0.995

Kindly note the recorded normalized growth for COc1ccc(CCC(=O)c2c(O)cc(O[C@@H]3O[C@H](CO)C(O)[C@H](O)C3O[C@@H]3O[C@@H](C)[C@H](O)[C@@H](O)[C@H]3O)cc2O)cc1O (stereo partly drawn) , which is 0.972

* * *

# EXPERIMENT_DESCRIPTION: chemical genetic growth profiling, strain panel (AID 1159580)
# PROTOCOL_CONDITIONS: S. cerevisiae deletion strains, growth OD, locus YGR135W, strain pre9, hits give low values
In all, about 5,500 compounds went through this assay and about 2,000 (36%) were called active. Inconclusive results (about 18%) are left out. Some of the results follow.
Please provide measured normalized growth for the entries that follow.
In your answer, state the number alone without any accompanying words.

Kindly note the recorded normalized growth for C[C@]12CCC3C(CC[C@H]4C[C@@H](O)CC[C@]34C)C1CC[C@@H]2O (stereo not given in full) , which is 0.973

Kindly note the recorded normalized growth for CC1CCC(NC(=O)N(CCCl)N=O)CC1 (stereo not given) , which is 0.935

Kindly note the recorded normalized growth for O=c1oc2ccccc2cc1O , which is 0.969

Kindly note the recorded normalized growth for Cc1onc(-c2ccccc2)c1-c1ccc(S(N)(=O)=O)cc1 , which is 0.995

Kindly note the recorded normalized growth for NCCCCNCCCN , which is 0.999

Kindly note the recorded normalized growth for c1ccc2c(CC3=NCCN3)cccc2c1 , which is 1.02

Kindly note the recorded normalized growth for OC[C@H]1O[C@@H](n2cnc3c(NCc4ccco4)ncnc32)[C@H](O)[C@@H]1O , which is 1

Kindly note the recorded normalized growth for CC(=O)C1CC[C@H]2C3CC[C@H]4C[C@H](O)CC[C@]4(C)C3CC[C@]12C (stereo not given in full) , which is 0.932

Kindly note the recorded normalized growth for CC(=O)O[C@]1(C)CC[C@@]23CC1C(C)(C)[C@@H]2CC[C@H]3C , which is 0.985

Kindly note the recorded normalized growth for COc1ccc2c(=O)c(OC)c(-c3ccccc3)oc2c1 , which is 0.754

* * *

# EXPERIMENT_DESCRIPTION: chemical genetic growth profiling, strain panel (AID 1159580);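 note: tested at 20 µM; growth read once vehicle control cultures reached saturation at 30 °C; 1 = growth at the plate median or of vehicle wells; lower values mean less growth of the strain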
# PROTOCOL_CONDITIONS: S. cerevisiae deletion strains, growth OD, locus YLR039C, strain RIC1, hits give low values
The whole screen tested about 5,500 compounds, of which about 2,000 (36%) were called active. Not shown: some 18% with an inconclusive outcome. This is one part of the list.
REPORTED_ENDPOINT: normalized growth
In your answer, state the number alone without any accompanying words.

Kindly note the recorded normalized growth for O=C1C2C3C=CC(C3)C2C(=O)N1c1ccc(F)c(F)c1 (configuration not stated) , which is 0.995

Kindly note the recorded normalized growth for CC(=O)O[C@H]1C[C@@]2(C)[C@@H](C[C@@H](O)C3[C@]2(C)CC[C@H]2[C@H](C)[C@H](O)CC[C@]32C)/C1=C(/CCC=C(C)C)C(=O)O (some centres not stated) , which is 0.996

Kindly note the recorded normalized growth for COC(=O)[C@@H]1OC(=O)C2OC23[C@@]1(C)CCC1[C@]2(C)C(C[C@@H](O)[C@]13C)C(C)(C)[C@H](OC(C)=O)C[C@@H]2OC(C)=O (some centres not stated) , which is 1.12

Kindly note the recorded normalized growth for CC(=O)c1ccc(N2C(=O)CSCC2=O)cc1 , which is 0.962

Kindly note the recorded normalized growth for c1ccc(-c2ccc(-c3csc(-c4cccnc4)n3)cc2)cc1 , which is 1.01

Kindly note the recorded normalized growth for Cc1cc2c3c(c1)c(O)cc(=O)n3CCC2 , which is 0.544

Kindly note the recorded normalized growth for Cc1nn(-c2ccccc2)nc1-c1nnc(-c2ccc(Cl)cc2)o1 , which is 1.04

* * *

Please provide measured normalized growth for the entries that follow.
# EXPERIMENT_DESCRIPTION: chemical genetic growth profiling, strain panel (AID 1159580);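 note: tested at 20 µM; growth read once vehicle control cultures reached saturation at 30 °C; 1 = growth at the plate median or of vehicle wells; lower values mean less growth of the strain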
# PROTOCOL_CONDITIONS: S. cerevisiae deletion strains, growth OD, locus YKR026C, strain gcn3, hits give low values
Screen size: about 5,500 compounds; about 2,000 (36%) were called active. Roughly 18% stayed inconclusive and do not appear here. The list shows a part of the results.
In your answer, state the number alone without any accompanying words.

Kindly note the recorded normalized growth for Cc1cccc(C)c1NC(=O)C1CCCCN1C (configuration not stated) , which is 0.979

Kindly note the recorded normalized growth for CC(=O)C1CC[C@H]2C3CC[C@H]4C[C@H](O)CC[C@]4(C)C3CC[C@]12C (some centres not stated) , which is 1

Kindly note the recorded normalized growth for C=CCS(=O)C[C@H](N)C(=O)O (some centres not stated) , which is 0.984

Kindly note the recorded normalized growth for COc1ccc(-c2oc3cc(OC)c(OC)c(OC)c3c(=O)c2OC)cc1 , which is 0.978

Kindly note the recorded normalized growth for O=NN(CCCl)C(=O)NCCCl , which is 0.983

Kindly note the recorded normalized growth for COc1ccc2nc(S(=O)Cc3ncc(C)c(OC)c3C)[nH]c2c1 (configuration not stated) , which is 1.01

Kindly note the recorded normalized growth for C[C@@H]1CC2C3CCC4=CC(=O)C=C[C@]4(C)[C@@]3(F)[C@@H](O)C[C@]2(C)[C@@]1(O)C(=O)CO (some centres not stated) , which is 0.98

* * *

# EXPERIMENT_DESCRIPTION: chemical genetic growth profiling, strain panel (AID 1159580);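 note: tested at 20 µM; growth read once vehicle control cultures reached saturation at 30 °C; 1 = growth at the plate median or of vehicle wells; lower values mean less growth of the strain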
# PROTOCOL_CONDITIONS: S. cerevisiae deletion strains, growth OD, locus YJL166W, strain qcr8
Screen size: about 5,500 compounds; about 2,000 (36%) were called active. Another 18% or so got no clear call; they are omitted. Rule as the data show it: active = normalized growth mostly below about 0.91 (no sharp cut-off); inconclusive = no clear call, values can overlap the other calls; inactive = mostly above about 0.92. This is one part of the list.
Lab note: assign the record to one of active, inactive

// return assay outcome for CCCCCCCCCCCCCC(=O)OC1C(C)C2(O)C(C=C(CO)CC3(O)C(=O)C(C)=CC32)C2C(C)(C)C12OC(C)=O (stereo unspecified) inactive

// return assay outcome for Cc1cc(CC(=O)O)n(C)c1C(=O)c1ccc(Cl)cc1 inactive

// return assay outcome for COC(=O)[C@@H]1OC(=O)C2OC23[C@@]1(C)CCC1[C@]2(C)C(C[C@@H](O)[C@]13C)C(C)(C)[C@H](OC(C)=O)C[C@@H]2OC(C)=O (stereo partly specified) inactive

// return assay outcome for Oc1c(Cl)cc(Cl)c(Cl)c1Cc1c(O)c(Cl)cc(Cl)c1Cl active

// return assay outcome for Nc1nc(F)nc2c1ncn2[C@@H]1O[C@H](COP(=O)(O)O)[C@@H](O)[C@@H]1O inactive

// return assay outcome for CC1(C)N([O-])[N+](=O)C1(C)Br (stereo unspecified) inactive
